# system_tested: CETP (Homo sapiens, UniProt P11597)
# Construct: CETP is obtained in partially purified form from human plasma by differential centrifugation and column chromatography and used for the test; from tissue; host or cells: human plasma
# Sequence (P11597 18-493): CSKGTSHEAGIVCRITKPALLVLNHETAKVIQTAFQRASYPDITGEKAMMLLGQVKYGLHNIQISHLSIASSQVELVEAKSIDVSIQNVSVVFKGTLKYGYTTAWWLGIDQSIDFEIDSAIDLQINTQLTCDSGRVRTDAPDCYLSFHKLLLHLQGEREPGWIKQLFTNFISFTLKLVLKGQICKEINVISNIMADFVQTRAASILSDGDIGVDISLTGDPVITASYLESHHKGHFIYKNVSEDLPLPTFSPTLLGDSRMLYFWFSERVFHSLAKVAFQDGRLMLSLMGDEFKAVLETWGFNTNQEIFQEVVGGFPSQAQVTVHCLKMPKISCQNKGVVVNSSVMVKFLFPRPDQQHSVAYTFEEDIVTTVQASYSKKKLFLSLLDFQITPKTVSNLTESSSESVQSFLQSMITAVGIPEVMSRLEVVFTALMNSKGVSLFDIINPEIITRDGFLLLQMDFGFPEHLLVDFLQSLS
# test_method_notes: CETP-SPA test
# Format: biochemical
# test_settings: transfer of 3H-cholesterol ester from human HDL to biotinylated LDL; 37° C. for 18 h
readout_type: IC50 (nM)

CC(C)c1cc2c(c(-c3ccc(F)cc3)c1[C@@H](O)c1ccc(C(F)(F)F)cc1)[C@@H](O)CC(C)(C)O2
29
CC(C)c1cc2c(c(-c3ccc(F)cc3)c1[C@@H](O)c1ccc(C(F)(F)F)cc1)[C@@H](O)CC1(CC1)O2
4
CC(C)(C)c1ccc(Cc2c(C3CCCC3)cc3c(c2-c2ccc(F)cc2)[C@@H](O)CC2(CCC2)O3)cc1
15
O=C(c1ccc(C(F)(F)F)cc1)c1c(C2CCCC2)cc2c(c1-c1ccc(F)cc1)[C@@H](O)CC1(CCC1)O2
31
O[C@@H](c1ccc(OC(F)(F)F)cc1)c1c(C2CCCC2)cc2c(c1-c1ccc(F)cc1)[C@@H](O)CC1(CCC1)O2
30

A. CC(C)c1cc2c(c(-c3ccc(F)cc3)c1C(=O)c1ccc(OC(F)(F)F)cc1)[C@@H](O)CC1(CCC1)O2
B. CC(C)c1cc2c(c(C3CCCC3)c1[C@@H](O)c1ccc(C(F)(F)F)cc1)[C@@H](O)CC(C)(C)O2
# query: argmin of IC50 over A and B Response format: the label of the selected entry. B
